Source of measurements: patent US20220185900A1

Overview of reported kon across a group of binders:
System name: T1, hRET.mFc (human)
T1 construct: also called dimeric human RET
Assay: SPR Biacore T200, mAb capture, 37 C
Numeric answer only, unit M⁻¹ s⁻¹ assumed.

Some binders with recorded kon:
Binder	kon / M⁻¹ s⁻¹
H4H8058P (antibody, human IgG4, V domains shown, human IgG4 Fc (H4H prefix)) VH: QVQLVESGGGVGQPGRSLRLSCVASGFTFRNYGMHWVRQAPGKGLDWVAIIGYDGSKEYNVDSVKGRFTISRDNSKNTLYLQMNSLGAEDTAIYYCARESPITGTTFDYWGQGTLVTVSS VL: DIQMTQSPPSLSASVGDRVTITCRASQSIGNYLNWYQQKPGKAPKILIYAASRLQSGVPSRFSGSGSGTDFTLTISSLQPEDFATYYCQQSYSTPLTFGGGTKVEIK	552000
H4H8084P (antibody, human IgG4, V domains shown, human IgG4 Fc (H4H prefix)) VH: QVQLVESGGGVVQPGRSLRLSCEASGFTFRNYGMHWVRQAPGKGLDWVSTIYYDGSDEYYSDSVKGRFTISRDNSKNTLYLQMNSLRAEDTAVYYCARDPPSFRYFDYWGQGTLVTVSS VL: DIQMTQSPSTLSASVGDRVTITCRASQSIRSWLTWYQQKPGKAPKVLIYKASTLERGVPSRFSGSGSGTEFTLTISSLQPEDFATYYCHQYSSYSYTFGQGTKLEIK	1.05e+06
H4H8076P (antibody, human IgG4, V domains shown, human IgG4 Fc (H4H prefix)) VH: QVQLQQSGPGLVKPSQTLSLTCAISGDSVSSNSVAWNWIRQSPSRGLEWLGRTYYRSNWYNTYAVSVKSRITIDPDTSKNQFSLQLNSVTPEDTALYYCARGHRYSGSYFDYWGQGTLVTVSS VL: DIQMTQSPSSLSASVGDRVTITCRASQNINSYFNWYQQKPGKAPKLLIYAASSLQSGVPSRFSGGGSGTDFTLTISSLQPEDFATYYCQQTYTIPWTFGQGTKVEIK	314000
H4H8080P (antibody, human IgG4, V domains shown, human IgG4 Fc (H4H prefix)) VH: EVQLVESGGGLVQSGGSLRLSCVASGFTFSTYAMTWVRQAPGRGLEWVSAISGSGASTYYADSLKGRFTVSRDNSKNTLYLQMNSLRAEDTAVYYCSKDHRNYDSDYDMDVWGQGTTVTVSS VL: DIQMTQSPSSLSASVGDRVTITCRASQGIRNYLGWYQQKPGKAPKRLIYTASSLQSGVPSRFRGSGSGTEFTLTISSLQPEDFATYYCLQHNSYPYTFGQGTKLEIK	269000
H4H8083P (antibody, human IgG4, V domains shown, human IgG4 Fc (H4H prefix)) VH: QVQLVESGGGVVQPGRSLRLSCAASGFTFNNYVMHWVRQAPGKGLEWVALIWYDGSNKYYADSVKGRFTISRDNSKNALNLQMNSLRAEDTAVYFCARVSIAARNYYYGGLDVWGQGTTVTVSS VL: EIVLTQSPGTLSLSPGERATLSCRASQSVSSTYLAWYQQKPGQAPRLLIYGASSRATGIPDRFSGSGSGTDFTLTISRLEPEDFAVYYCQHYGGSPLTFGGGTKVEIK	264000

Challenge: So what does the record say about kon for H4H8067P (antibody, human IgG4, V domains shown, human IgG4 Fc (H4H prefix)) VH: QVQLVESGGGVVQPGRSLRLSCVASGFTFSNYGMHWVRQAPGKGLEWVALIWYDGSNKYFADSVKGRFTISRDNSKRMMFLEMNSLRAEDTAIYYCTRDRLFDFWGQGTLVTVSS VL: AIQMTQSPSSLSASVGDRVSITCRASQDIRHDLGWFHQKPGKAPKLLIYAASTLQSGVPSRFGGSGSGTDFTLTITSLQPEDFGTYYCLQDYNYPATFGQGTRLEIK ?
Response given: 204000

Challenge: Next: H4H8071P (antibody, human IgG4, V domains shown, human IgG4 Fc (H4H prefix)) VH: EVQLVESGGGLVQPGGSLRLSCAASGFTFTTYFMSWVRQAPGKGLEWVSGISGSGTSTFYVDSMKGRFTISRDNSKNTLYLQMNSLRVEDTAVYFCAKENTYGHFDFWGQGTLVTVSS VL: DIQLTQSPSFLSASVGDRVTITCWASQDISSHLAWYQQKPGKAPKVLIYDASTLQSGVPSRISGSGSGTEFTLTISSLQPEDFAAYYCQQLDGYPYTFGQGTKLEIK
Response given: 300000
